Taken from ChEMBL document CHEMBL1629437.

# Method Summary: Octanol-water partition coefficient, log P of the compound at pH 7.4
# Type: physicochemical
Observed Property: logD
No unit in the answer, only the number.

Please fill in: logD reported for [11CH3]Nc1ccc(/C=C/c2ccc(N)cc2)cc1 = 2.25
